Entries and their interaction score values follow.
Molecular target: T1, 4H384-AA
T1 chain: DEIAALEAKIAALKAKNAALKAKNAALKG
Assay: two-hybrid library CCmax;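 note: natural log of median RNA to DNA barcode read ratio; higher means stronger binding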
Details: mean of both orientations
In your answer, state the number alone without any accompanying words.

IN: Look at this binder and give its reported interaction score. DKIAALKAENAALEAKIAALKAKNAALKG [4H2736-AA]
OUT: -1.67

IN: Would you kindly repeat that for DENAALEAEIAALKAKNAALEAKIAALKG [4H1142-AA] ?
OUT: -1.72

Further cases:
IN: Query: interaction score; subject: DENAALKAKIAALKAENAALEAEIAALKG [4H1874-AA]
OUT: -0.973

IN: Continue with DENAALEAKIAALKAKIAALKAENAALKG [4H1388-AA]
OUT: -0.356
